// composite Z-score lookup, one value per entry
- measurement protocol: small-molecule microarray binders of probe aXIP, primary screen, biochemical, NeuroSMM set, 635/667 nm fluorescence (AID 1119);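 also: probe is the protein aXip251-270 applied at 1 µg/mL to compound-printed slides; binding of probe to printed compounds measured as 667 nm fluorescence plus signal to noise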
- run conditions: higher = more signal, called active from +8 up or from −8 down
observation type: composite Z-score

1) CC(CCN1CCc2nc(-c3ccccc3)c(-c3ccccc3)cc2C1)=NOC[C@@H](C)[C@H](OCc1ccccc1)C(C)C :: -0.193
2) CC(=O)OC[C@H]1O[C@@H](ON=C[C@@H](C)[C@H](OCc2ccccc2)C(C)C)[C@H](OC(C)=O)[C@@H](OC(C)=O)[C@@H]1OC(C)=O :: 0.0474
3) C=CCOC(=O)[C@H]1[C@@H]2C(=O)O[C@@H](c3ccccc3)[C@@H](c3ccccc3)N2[C@@H](c2ccc(OCCOC(=O)[C@H]3C[C@H]4C(=O)N5CCC[C@H]5C(=O)N4[C@H]3c3cccc(OCCO)c3)cc2)[C@]12C(=O)Nc1ccc(I)cc12 :: 1.9
4) COC(=O)[C@H](C)NC(=O)[C@@H](C)CO :: 0.292
5) CCCCCN1CC=CC23O[C@@H]4C=CCOC(=O)[C@@H]4[C@H]2C(=O)N(CCCCCCO)[C@@H]3C1=O (stereo not given in full) :: 0.401

###

// composite z-score lookup, one value per entry
- test system: Calmodulin-1 (Homo sapiens) (UniProt P0DP23)
- measurement protocol: calcium-bound CALM1 binders on microarrays, profiling panel, artefact control for SMM control-protein annotation, biochemical, small-molecule microarray, Cy5-labelled CALM1, plus calcium (AID 1112);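 also: score merges spot fluorescence with signal to noise from triplicate slides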
- run conditions: Cy5-CALM1 binding fluorescence, higher = more signal
observation type: composite z-score

1. CC(C)CON=C1C[C@@H](O)[C@@H](O)[C@@H]2[C@@H]3C(=O)N([C@@H](C)c4ccccc4)C(=O)[C@@H]3CC[C@H]12 :: -0.351
2. CCCNC(=O)OC[C@H]1O[C@H](CCON=C[C@@H](OC)[C@H](C)C=CCC(=O)OC)C=C[C@@H]1Oc1ccc(OC)cc1 :: -0.848
3. Cc1cc(C)c(-c2cc([C@H](C)ON=C3[C@H]4CCn5c(=O)n(-c6ccccc6)c(=O)n5[C@H]4[C@H](O)[C@@H]4O[C@H]34)on2)c(C)c1 :: -0.386
4. O=C1NC(=O)C2C1C=CC(C(O)Cc1ccccc1)N2Nc1ccccn1 (stereo not drawn) :: -0.541
5. CC(=O)O[C@H]1C2=C(C(=O)[C@@H]3O[C@@H]31)[C@H]1C(C)O[C@@H]2[C@@]23C(=O)[C@@H]4O[C@@H]4[C@@H](O)C2=CO[C@H](C)[C@@H]13 (stereo partly drawn) :: -0.891
6. COC(=O)CC=C[C@H](C)[C@H](CO)NS(=O)(=O)c1ccc(C)cc1 :: -0.624
7. CO[C@@H]1COC(=O)[C@H](C)NC(=O)[C@@H](C)COC(=O)CCC[C@H]1C :: -0.704
8. COc1ccc(O[C@H]2C=C[C@@H](c3ccccc3)O[C@@H]2COC(=O)CCC(C)=NOC(C)CN2CCCCc3nc(C)c(C)cc32)cc1 (stereo partly drawn) :: -0.203
9. Cc1ccc(F)cc1S(=O)(=O)N[C@@H]1CCN(Cc2ccc(CC(C)C)cc2)C1 :: -0.328
10. O=C1O[C@@H](c2ccccc2)[C@@H](c2ccccc2)N2[C@@H](c3ccc(OCCO)cc3)[C@]3(C(=O)Nc4ccc(C#CCCO)cc43)[C@@H](C(=O)N3CCCCCCC3)[C@H]12 :: 1.06
11. O=C1[C@H]2[C@H]3[C@H](O)[C@H](O)CC(=NO[C@@H]4O[C@H](CO)[C@@H](O)[C@H](O)[C@H]4O)[C@@H]3CC[C@H]2C(=O)N1Cc1ccc2c(c1)OCO2 :: -0.566
12. O=C1O[C@@H](c2ccccc2)[C@@H](c2ccccc2)N2[C@@H](c3ccc(OCCO)cc3)[C@]3(C(=O)Nc4ccccc43)[C@@H](C(=O)N3CCN(c4ncccn4)CC3)[C@H]12 :: -0.355
13. COc1ccccc1CN1C(=O)c2ccccc2[C@@]2(Cc3ccccc3N(C(C)C)C2=O)[C@@H]1c1ccc(CO)cc1 :: -0.772
14. C[C@@H](c1ccccc1)N1C(=O)[C@H]2[C@H]3[C@H](O)[C@H](O)CC(=NNC(=O)OCc4ccccc4)[C@H]3CC[C@H]2C1=O :: -0.726
15. O=C1[C@H]2[C@H]3[C@H](O)[C@H](O)CC(=NOCc4ccccc4)[C@@H]3CC[C@H]2C(=O)N1C1CCCCC1 :: -0.408
16. O=C(NN=C1C[C@@H](O)[C@@H](O)[C@@H]2[C@@H]3C(=O)N(c4cccc(Oc5ccccc5)c4)C(=O)[C@@H]3CC[C@@H]12)OCc1ccccc1 :: 0.0109
17. C=CCNC(=O)[C@H]1[C@@H]2C(=O)O[C@@H](c3ccccc3)[C@@H](c3ccccc3)N2[C@@H](c2ccc(O)cc2)[C@]12C(=O)N(C(=O)OCCOC)c1ccc(C#CC3=CCCCC3)cc12 :: 0.566
18. CO[C@@H]1COC(=O)CCC[C@@H](C)[C@H](OC)COC(=O)CCC[C@H]1C :: -0.966

###

- System: Human papillomavirus type 1a protein E7 (residues 44-93)
- measurement protocol: HPV1a E7 fragment binders on microarrays, primary screen, biochemical, small-molecule microarray, residues 44-93, 635 nm fluorescence (AID 1108);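 also: E7 fragment applied at 1 µg/mL in TBST for 1 h at 4 C; score combines spot fluorescence with its signal to noise ratio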
- run conditions: small-molecule microarray binding, fluorescence 635 nm; higher = more signal
// composite z-score lookup, one value per entry
observation type: composite z-score

1) Cc1cc2c(nc1C)CCCN2CC(O)CN1CCN(C)CC1 (centres undefined) :: 0.329
2) COC(=O)c1c(CC[C@@H](CO)NC(=O)N[C@H](Cc2ccccc2)Cn2cc(-c3ccccc3N)nn2)oc(C(C)=O)c1C(=O)OC :: 0.734
3) c1ccc(C2NCCc3c2[nH]c2ccccc32)cc1 (centres undefined) :: -0.571
4) COc1ccc(O[C@H]2C=C[C@@H](c3ccccc3)O[C@@H]2COC(=O)CCC(C)=NO[C@H](C)c2cn([C@@H]3COC[C@H]3O)nn2)cc1 :: 0.765
5) CCOC(=O)[C@H](CC(C)C)NC(=O)CCC1CC(OC(=O)NCCc2ccc(F)cc2)CC2(CCCC(COC(=O)NCc3ccccc3)O2)O1 (some centres undefined) :: 1.37
6) CC(C)C[C@@H]1NC(=O)[C@H]2C[C@@H](C(=O)NCCCCCCN(C)C)[C@@H](c3cccc(OCCO)c3)N2C1=O :: 1.24
7) CCOC(=O)[C@H](Cc1ccccc1)NC(=O)CCC1CC(OC(=O)NCc2ccc3c(c2)OCO3)CC2(CCCC(COC(=O)NCC(c3ccccc3)c3ccccc3)O2)O1 (some centres undefined) :: 1.39
8) C=COC[C@H]1CN2[C@@H](CC[C@@H](C)[C@@H]2c2ccc(Br)cc2)C(=O)O1 :: 0.864
9) O=C1C[C@@H](O)[C@@H](O)[C@@H]2[C@@H]3C(=O)N(Cc4ccc5c(c4)OCO5)C(=O)[C@@H]3CC[C@@H]12 :: -0.0301
10) COCCOC(=O)N1C(=O)[C@@]2(c3ccccc31)[C@H](C(N)=O)[C@H]1C(=O)O[C@H](c3ccccc3)[C@H](c3ccccc3)N1[C@@H]2c1ccccc1OCCO :: 1.32
11) CC(C)=NOCc1ccc(-c2cc(-c3ccccc3)no2)cc1 :: -0.0501
12) CC(CCN1CCc2nc(-c3ccccc3)c(-c3ccccc3)cc2C1)=NOC[C@@H](C)[C@H](OCc1ccccc1)C(C)C :: -1.08
13) O=C1[C@H]2[C@H]3[C@H](O)[C@H](O)CC(=NOCc4ccccc4)[C@@H]3CC[C@H]2C(=O)N1C1CCCCC1 :: 0.422
14) CC1CC/C=C\[C@H]2OC34C=CCN(C(C)C)C(=O)[C@H]3N(CCCO)C(=O)[C@@H]4C2C(=O)O1 (some centres undefined) :: -0.249

###

- measurement protocol: small-molecule microarray binders of probe aLefty2, primary screen, biochemical, biotinylated probe, 635/667 nm fluorescence (AID 1094);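 also: score merges spot fluorescence near 667 nm with spot signal-to-noise ratio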
- run conditions: higher = more signal
observation type: composite z-score

1. C[C@H]1Cc2c(-c3ccccc3)nc3c(c2CO1)CN(CCOc1ccccc1)CC3 :: -0.161
2. CC(C)NC(=O)[C@@]1(c2ccc([N+](=O)[O-])cc2)CC(=O)N(CC23CC4CC(CC(C4)C2)C3)[C@@H]1c1ccc(CO)cc1I :: 0.448
3. CO[C@@H]1COC(=O)CCC[C@@H](C)[C@H](OC)COC(=O)[C@H](Cc2ccccc2)NC(=O)CC=C[C@H]1C :: -0.178
4. C/C=C\[C@@H](NCc1ccccc1Br)[C@@H](O)Cc1ccccc1 :: 0.149
5. CC(C)=NOCc1cccc(-c2cc(-c3ccccc3)no2)c1 :: -0.0375
6. COc1ccc(O[C@H]2C=C[C@@H](c3ccccc3)O[C@@H]2COC(=O)N2CCCCC2)cc1 :: 0.0116
7. CCN1C(=O)[C@H]2[C@H]3[C@H](O)C=CC(=O)[C@@H]3CC[C@H]2C1=O :: -0.0961
